Tested on: Mycobacterium intracellulare
protocolDescription: Antibacterial activity against Mycobacterium intracellular ATCC 23068 by alamar blue method
Type: functional, organism-based
observable: MBC

// field: MBC; key: O=C(O)c1cn(C2CC2)c2cc(N3CCNCC3)c(F)cc2c1=O ; value = > 20 µg/mL

Given item C[n+]1cccc(N(CCCCCC2CCCCC2)c2ccc(C#N)cc2)c1.[I-] , the value recorded as its MBC is 5 µg/mL

Memo: C[n+]1cccc2c1c1cc(F)ccc1n2CCCCCC1CCCCC1.[I-] , reported MBC: 5 µg/mL

For record CCc1ccc(N(CCCCCC2CCCCC2)c2ccc[n+](C)c2)cc1.[I-] the listed MBC is 5 µg/mL

The molecule identified as C[n+]1cccc(N(CCCCCC2CCCCC2)c2ccc(F)cc2)c1.[I-] registered its MBC at 10 µg/mL

MBC measured on C[n+]1cccc2c1c1ccccc1n2CCCCCC1CCCCC1.[I-] = 2.5 µg/mL

Lookup result for COc1ccc(N(CCCCCC2CCCCC2)c2ccc[n+](C)c2)cc1.[I-] ; measured MBC: 5 µg/mL

// MBC lookup, molecule = Cc1cccc(N(CCCCCC2CCCCC2)c2ccc[n+](C)c2)c1.[I-] , result: 5 µg/mL

====

Tested on: Cryptococcus neoformans
protocolDescription: Antifungal activity against Cryptococcus neoformans ATCC 90113 by NCCLS method
Type: functional, organism-based
observable: MFC (µg/mL)
Number only, in µg/mL; omit the unit.

As a guide, the following entries are already answered.
The value of MFC measured for the compound C[n+]1cccc2c1c1cc(C#N)ccc1n2CCCCCC1CCCCC1.[I-] turned out to be 5

// MFC value for Cc1ccc2c(c1)c1c(ccc[n+]1C)n2CCCCCC1CCCCC1.[I-] : 2.5

Memo: C[C@@H]1[C@H](O)[C@@H](C)/C=C/C=C/C=C/C=C/C=C/C=C/C=C/[C@H](O[C@@H]2O[C@H](C)[C@@H](O)[C@H](N)[C@@H]2O)C[C@@H]2O[C@](O)(C[C@@H](O)C[C@@H](O)[C@H](O)CC[C@@H](O)C[C@@H](O)CC(=O)O[C@H]1C)C[C@H](O)[C@H]2C(=O)O , reported MFC: 0.63

In plain terms, C[n+]1cccc2c1c1ccccc1n2CCCCCC1CCCCC1.[I-] has a documented MFC of 5

Looking up CSc1ccc2c(c1)c1c(ccc[n+]1C)n2CCCCCC1CCCCC1.[I-] , I see its MFC listed as 0.6

More entries:
Note to self: MFC recorded for C[n+]1cccc2c1c1cccc(Cl)c1n2CCCCCC1CCCCC1.[I-] was 0.6

Data point: C[n+]1cccc2c1c1cc(F)ccc1n2CCCCCC1CCCCC1.[I-] ; MFC = 1.3

The compound COc1ccc2c(c1)c1c(ccc[n+]1C)n2CCCCCC1CCCCC1.[I-] showed MFC equal to 1.3

====

# MBC annotations
System: Staphylococcus aureus
protocolDescription: Antibacterial activity against methicillin-resistant Staphylococcus aureus ATCC 33591 by NCCLS method
Type: functional, organism-based
A number alone suffices; assume µg/mL.

// below: answered compounds
The measured MBC that C[n+]1cccc(N(CCCCCC2CCCCC2)c2ccccc2C#N)c1.[I-] showed for Staphylococcus aureus is 20

The reported Staphylococcus aureus MBC of Cc1cccc(N(CCCCCC2CCCCC2)c2ccc[n+](C)c2)c1.[I-] is 5

Continuing:
For the compound C[n+]1cccc(N(CCCCCC2CCCCC2)c2ccccc2)c1.[I-] , the measured MBC on Staphylococcus aureus was 20

Ref: ChEMBL document CHEMBL1781968
